biological target: human GR (Homo sapiens, UniProt P04150); construct: naturally expresses the human GR; endogenous in cells; assay: Transrepression assay (GITAR), TNFα-β-lactamase reporter in U937 cells; format: cell-based; settings: U-937, U937 cells; activity repressed by 100 nM dexamethasone alone set as 100%
Sequence (P04150 whole entry): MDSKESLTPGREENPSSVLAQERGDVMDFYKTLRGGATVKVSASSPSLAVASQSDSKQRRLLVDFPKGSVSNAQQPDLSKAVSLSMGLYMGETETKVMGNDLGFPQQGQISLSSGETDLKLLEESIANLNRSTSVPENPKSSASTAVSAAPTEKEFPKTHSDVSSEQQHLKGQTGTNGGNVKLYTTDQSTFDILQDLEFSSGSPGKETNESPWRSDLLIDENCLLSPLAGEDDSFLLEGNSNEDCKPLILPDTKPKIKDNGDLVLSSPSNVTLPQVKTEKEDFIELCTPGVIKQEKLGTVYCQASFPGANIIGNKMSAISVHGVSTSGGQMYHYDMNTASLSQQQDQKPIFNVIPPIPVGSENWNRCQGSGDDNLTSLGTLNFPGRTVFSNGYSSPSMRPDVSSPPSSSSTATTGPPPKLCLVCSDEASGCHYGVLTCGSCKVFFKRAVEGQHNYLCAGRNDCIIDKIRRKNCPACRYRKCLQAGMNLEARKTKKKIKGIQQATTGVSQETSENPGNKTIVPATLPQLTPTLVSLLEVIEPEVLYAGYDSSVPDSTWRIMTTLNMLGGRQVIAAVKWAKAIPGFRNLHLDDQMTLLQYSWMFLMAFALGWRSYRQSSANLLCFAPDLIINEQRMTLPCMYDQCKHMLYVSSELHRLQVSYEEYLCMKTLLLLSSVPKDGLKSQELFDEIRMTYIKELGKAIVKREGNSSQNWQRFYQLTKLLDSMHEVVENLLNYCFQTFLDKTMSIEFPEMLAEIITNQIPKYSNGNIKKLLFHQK

{"compound": "CC[C@]12Cc3cnn(-c4ccc(F)cc4)c3C=C1CC[C@@]2(O)CC(O)c1c(F)ccnc1Cl (stereo partly drawn)", "system_under_test": "human GR (Homo sapiens, UniProt P04150)", "Emax [%]": 72}
{"compound": "OCc1ccccc1CC[C@]1(O)CCC2=Cc3c(cnn3-c3ccc(F)cc3)C[C@@]21C1CC1", "system_under_test": "human GR (Homo sapiens, UniProt P04150)", "Emax [%]": 79}
{"compound": "CC[C@]12Cc3cnn(-c4ccc(F)cc4)c3C=C1CC[C@@]2(O)CCc1ccccc1S(C)(=O)=O", "system_under_test": "human GR (Homo sapiens, UniProt P04150)", "Emax [%]": 89}
{"compound": "CC[C@]12Cc3cnn(-c4ccccc4)c3C=C1CC[C@@]2(O)CC(O)c1ccccn1 (single isomer, unassigned) [Example 67a]", "system_under_test": "human GR (Homo sapiens, UniProt P04150)", "Emax [%]": 54}
{"compound": "N#Cc1cccnc1CC[C@]1(O)CCC2=Cc3c(cnn3-c3ccc(F)cc3)C[C@@]21C1CC1", "system_under_test": "human GR (Homo sapiens, UniProt P04150)", "Emax [%]": 89}
{"compound": "CC[C@]12Cc3cnn(-c4ccccc4)c3C=C1CC[C@@]2(O)CCc1ccccc1C(N)=O", "system_under_test": "human GR (Homo sapiens, UniProt P04150)", "Emax [%]": 86}
